measured on: T1, huNectin4-His (human, UniProt Q96NY8 32-349)
T1 construct: Immobilized on the SPR chip; also called humanNectin4; human Nectin4; not shown: His tag
T1 sequence (looked up): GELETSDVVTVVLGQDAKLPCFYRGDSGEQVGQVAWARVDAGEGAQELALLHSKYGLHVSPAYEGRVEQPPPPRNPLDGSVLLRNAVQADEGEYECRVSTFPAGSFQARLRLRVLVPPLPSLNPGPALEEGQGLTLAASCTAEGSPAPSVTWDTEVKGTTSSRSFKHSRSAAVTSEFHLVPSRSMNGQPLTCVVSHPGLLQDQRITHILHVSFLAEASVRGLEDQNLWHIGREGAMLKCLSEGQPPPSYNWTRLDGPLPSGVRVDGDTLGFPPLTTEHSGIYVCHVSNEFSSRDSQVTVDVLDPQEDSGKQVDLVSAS
test description: SPR, huNectin4-His immobilized, pH 6.0
Method: Binding kinetics of anti-Nectin4 antibodies were measured by surface plasmon resonance using a SPR2/4 instrument (Sierra Sensors, Hamburg, Germany) and flat amine sensor chips. The SPR sensor contained four flow cells (FC1-FC4), each of which was addressed individually or in groups. huNectin4-His was immobilized in FC2, and cynoNectin4-mFc in FC4. No protein was immobilized in FC1 and FC3 which were used as control surfaces for FC2 and FC4, respectively. […] The off-rate was measured for 360s. […]
Let's look at some binders and their measured koff.
Just the number please, in s⁻¹, no unit attached.

BAP-143-06-33-16 (antibody, V domains shown, Used as a conjugate with a linker payload (CAB ADC)) VH: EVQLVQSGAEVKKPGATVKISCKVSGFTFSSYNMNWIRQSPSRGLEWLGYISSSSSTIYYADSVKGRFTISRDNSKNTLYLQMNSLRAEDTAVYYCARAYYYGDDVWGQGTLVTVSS VL: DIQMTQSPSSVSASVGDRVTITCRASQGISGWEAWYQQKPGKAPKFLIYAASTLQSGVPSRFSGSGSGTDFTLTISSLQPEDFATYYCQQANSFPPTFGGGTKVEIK | 0.000195
BAP-143-07-03-12 (antibody, V domains shown, Used as a conjugate with a linker payload (CAB ADC)) VH: EVQLVESGGGLVQPGGSLRLSCAASGFTFSSYNMNWVRQAPGKGLEWVSYISSSSSTIYYADSVKGRFTISRDNAKNSLSLQMNSLRDEDTAVYYCARAYYYGMDKWGQGTTVTVSS VL: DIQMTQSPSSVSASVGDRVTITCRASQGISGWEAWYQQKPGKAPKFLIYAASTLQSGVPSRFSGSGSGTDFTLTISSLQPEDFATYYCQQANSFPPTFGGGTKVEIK | 0.000869
BAP-143-06-24-16 (antibody, V domains shown, Used as a conjugate with a linker payload (CAB ADC)) VH: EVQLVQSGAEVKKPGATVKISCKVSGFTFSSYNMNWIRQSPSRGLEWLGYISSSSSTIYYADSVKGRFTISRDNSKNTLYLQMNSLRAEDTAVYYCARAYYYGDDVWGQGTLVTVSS VL: DIQMTQSPSSVSASVGDRVTITCHASQGISGWLAWYQQKPGKAPKFLIYAASTLQSGVPSRFSGSGSGTDFTLTISSLQPEDFATYYCQQANSFPPTFGGGTKVEIK | 0.00033

Could you now look at the following binder, please?
Ask: Please give measured koff of the following entry: BAP-143-00-01 (antibody, V domains shown, Used as a conjugate with a linker payload (CAB ADC)) VH: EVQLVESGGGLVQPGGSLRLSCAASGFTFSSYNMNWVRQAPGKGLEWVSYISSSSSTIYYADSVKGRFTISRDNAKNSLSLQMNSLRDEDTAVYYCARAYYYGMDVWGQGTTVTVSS VL: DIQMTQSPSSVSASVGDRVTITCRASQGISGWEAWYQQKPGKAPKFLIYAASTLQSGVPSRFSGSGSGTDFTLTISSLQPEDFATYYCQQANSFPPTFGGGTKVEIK
Result: 0.000771
